FYI, the data here is from patent US20190119282A1.

measurementTarget: PAR2 (HT-29 cells, trypsin activation) (Homo sapiens)
Construct: host or cells: HT-29 cells
Sequence (P55085 26-397): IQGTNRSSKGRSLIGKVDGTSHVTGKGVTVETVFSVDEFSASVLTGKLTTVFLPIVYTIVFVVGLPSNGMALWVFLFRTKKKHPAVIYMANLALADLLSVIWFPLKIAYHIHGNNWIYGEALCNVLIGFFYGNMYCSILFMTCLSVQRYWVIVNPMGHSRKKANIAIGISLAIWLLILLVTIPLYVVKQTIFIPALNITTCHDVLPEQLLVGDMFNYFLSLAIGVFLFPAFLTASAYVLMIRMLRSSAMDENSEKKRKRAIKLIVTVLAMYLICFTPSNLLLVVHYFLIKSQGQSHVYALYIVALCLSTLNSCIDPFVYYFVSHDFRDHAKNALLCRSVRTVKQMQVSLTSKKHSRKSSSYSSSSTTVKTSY
assayMethodText: Ca FLIPR TETRA assay, ANTAGONIST mode, stimulation with 3.1 U/mL trypsin
Type: cell-based
conditionSummary: HT-29 cells, stimulation with 3.1 U/mL trypsin
Record form. Attribute: pIC50. Fill in for each entry.
By convention, pIC50 is the negative base-10 log of a molar concentration.

// sample CC(C)c1cc(C#CC2CC2)nn2cc(C(=O)N3CCN(C(=O)C4(O)CCC4)CC3(C)C)nc12 , its pIC50 was 5.28

Entry C#CCCC(=O)N1CCN(C(=O)c2cn3nc(-c4ccc(F)cc4)cc(C(C)C)c3n2)C[C@@H]1C , pIC50 reported as 6.68

According to the records, this compound CC1(C)CN(C(=O)C2(O)CCC2)CCN1C(=O)c1cn2nc(-c3ccc(F)cc3)cc(C3CC3)c2n1 displays pIC50 of 7.54

Value of pIC50 reported for the compound C[C@H]1CN(C(=O)c2cn3nc(-c4ccc(F)cc4)cc(C(F)(F)F)c3n2)CCN1C(=O)[C@@H](CC1CCCCC1)NC(=O)OC(C)(C)C is 7.24

###

assayMethodText: In vivo rat pharmacokinetics (intravenous and oral)
conditionSummary: plasma, read-out: T ½ (converted)
resultType: half-life (h)
Give just the numeric value; h need not be written.

Record Cc1nc(C(=O)N2CCN(C(=O)c3cn4nc(-c5ccc(Cl)cc5)cc(C(C)(C)C)c4n3)C(C)(C)C2)n[nH]1 [Compound I-436] , field half-life: 7.5

The compound CC(C)(C)c1cc(-c2ccc(F)cc2)nn2cc(C(=O)N3CCN(C(=O)C4CC(O)(C(F)(F)F)C4)CC3(C)C)nc12 (stereo not shown) [Compound I-199] showed half-life equal to 18.1

Summary for this compound, CC(C)(C)c1cc(-c2ccc(F)cc2)nn2cc(C(=O)N3CCN(C(=O)c4ccn[nH]4)CC3(C)C)nc12 [Compound I-201] : half-life is 4.3

Lookup result for Cc1nnc(C(=O)N2CCN(C(=O)c3cn4nc(C5CCC(F)(F)CC5)cc(C(C)(C)C)c4n3)C(C)(C)C2)[nH]1 [Compound I-448] ; measured half-life: 5.14

Summary for this compound, Cc1nc(C(=O)N2CCN(C(=O)c3cn4nc(-c5ccc(F)cc5)cc(C(C)(C)C)c4n3)C(C)(C)C2)n[nH]1 [Compound I-343] : half-life is 7.03

Cc1cc(-c2cc(C(C)C)c3nc(C(=O)N4CCNC(=O)C4(C)C)cn3n2)ccc1F [Compound I-244] has a reported half-life of 5.1

half-life measured on CC(C)(O)C(=O)N1CCN(C(=O)c2cn3nc(-c4ccc(F)cc4)cc(C4(C)CC4)c3n2)C(C)(C)C1 [Compound I-32] = 1.4

###

Task for the reader: assign each of the following compounds its reported IC50.
measurementTarget: PAR2 (HT-29 cells, SLIGKV activation) (Homo sapiens, UniProt P55085)
Construct: host or cells: HT-29 cells
assayMethodText: Ca FLIPR TETRA assay, ANTAGONIST mode, stimulation with 8 μM SLIGKV
Type: cell-based
conditionSummary: HT-29 cells, antagonist mode, stimulation with 8 μM SLIGKV

So, CC(C)c1cc(-c2ccc(F)cc2)nn2cc(C(=O)N3CCN(C(=O)C(C)(N)C(F)(F)F)CC3(C)C)nc12 (stereo not drawn) ? Its IC50 was 10.4 nM

The measured IC50 associated with Cc1ccc(-c2cc(C(C)(C)C)c3nc(C(=O)N4CCN(C(=O)c5ccccn5)CC4(C)C)cn3n2)cc1F reads 1.5 nM

The compound listed as Cc1nc(C(=O)N2CCN(C(=O)c3cn4nc(-c5ccc(F)c(Cl)c5)cc(C(C)C)c4n3)C(C)(C)C2)n[nH]1 shows IC50 equal to 2.5 nM

IC50 for Cc1nnc(C(=O)N2CCN(C(=O)c3cn4nc(-c5ccc(Cl)c(F)c5)cc(C(C)(C)C)c4n3)C(C)(C)C2)o1 is 0.6 nM

Value of IC50 reported for the compound CC(C)c1cc(-c2ccc(F)cc2)nn2cc(C(=O)N3CCN(C(=O)c4c[nH]cn4)CC3(C)C)nc12 is 17 nM

Lab note: CC(C)(C)c1cc(-c2ccc(F)cc2)nn2cc(C(=O)N3CCN(C(=O)[C@H]4CC[C@@H](C(=O)O)CC4)CC3(C)C)nc12 gave IC50 of 0.5 nM

###

assayMethodText: In vivo rat pharmacokinetics (intravenous and oral)
conditionSummary: plasma, intravenous, read-out: Vss
resultType: Vd (L/kg)
Note: unit L/kg is implicit; provide only the numeric part.

The molecule identified as Cc1nnc(C(=O)N2CCN(C(=O)c3cn4nc(C5CCC(F)(F)CC5)cc(C(C)(C)C)c4n3)C(C)(C)C2)[nH]1 registered its Vd at 1.84

Memo: Cc1cc(-c2ccc(F)cc2)nn2cc(C(=O)N3CCN(C(=O)[C@H](O)CC(C)(C)C)[C@@H](C)C3)nc12 , reported Vd: 1.4

# Vd of Cc1cc(C(=O)N2CCN(C(=O)c3cn4nc(-c5ccc(F)cc5)cc(C(C)C)c4n3)C(C)(C)C2)[nH]n1 = 2.04

So for Cc1nc(C(=O)N2CCN(C(=O)c3cn4nc(-c5ccc(F)cc5)cc(C(C)(C)C)c4n3)C(C)(C)C2)n[nH]1 , the logged Vd turned out to be 1.65

response.value for CC(C)(C)c1cc(-c2ccc(F)cc2)nn2cc(C(=O)N3CCN(C(=O)C4CC(O)(C(F)(F)F)C4)CC3(C)C)nc12 (stereo not drawn) (field: Vd) = 4.2

Field Vd (entry CC(C)(C)c1cc(-c2ccc(Cl)cc2)nn2cc(C(=O)N3CCN(C(=O)[C@H]4C[C@@](C)(O)C4)CC3(C)C)nc12 ) reads 3.07

###

measurementTarget: PAR2 (HT-29 cells, trypsin activation) (Homo sapiens)
Construct: host or cells: HT-29 cells
assayMethodText: Ca FLIPR TETRA assay, ANTAGONIST mode, stimulation with 3.1 U/mL trypsin
Type: cell-based
conditionSummary: HT-29 cells, antagonist mode, stimulation with 3.1 U/mL trypsin
resultType: IC50
Put down the number, then write its unit next to it.

In plain terms, Cc1ncc(C(=O)N2CCN(C(=O)c3cn4nc(-c5ccc(C(F)(F)F)cc5)cc(C(C)(C)C)c4n3)C(C)(C)C2)[nH]1 has a documented IC50 of 2.2 nM

IC50 recorded for this molecule, Cc1cn[nH]c1C(=O)N1CCN(C(=O)c2cn3nc(-c4ccc(F)cc4)cc(C(C)(C)C)c3n2)C(C)(C)C1 , is 3.1 nM

The value of IC50 measured for the molecule CC(C)(C)c1cc(-c2ccc(F)cc2)nn2cc(C(=O)N3CCN(C(=O)c4ncc[nH]4)CC3(C)C)nc12 turned out to be 0.8 nM

For CC(C)(C)c1cc(-c2ccc(Cl)cc2)nn2cc(C(=O)N3CCN(C(=O)[C@H]4CC[C@H](C(=O)O)CC4)CC3(C)C)nc12 the molecule record lists IC50 as 3.2 nM

So, CC(C)(C)c1cc(-c2ccc(Cl)cc2)nn2cc(C(=O)N3CCN(C(=O)c4ccn[nH]4)CC3(C)C)nc12 ? Its IC50 was 0.7 nM

Per the record, Cc1ccc(-c2cc(C(C)C)c3nc(C(=O)N4CCN(C(=O)C5CC(C)(O)C5)CC4(C)C)cn3n2)cc1F (stereo not drawn) has IC50 of 1.6 nM

Briefly, IC50 measured for Cc1ccc(-c2cc(C(C)(C)C)c3nc(C(=O)N4CCN(C(=O)[C@H]5C[C@@](C)(O)C5)CC4(C)C)cn3n2)cc1 : 0.7 nM

Looking up CC1(C)CN(C(=O)c2ccncn2)CCN1C(=O)c1cn2nc(-c3ccc(F)cc3)cc(C(F)(F)F)c2n1 , I see its IC50 listed as 104 nM

Memo: CC(C)c1cc(-c2ccc(C(F)(F)F)c(F)c2)nn2cc(C(=O)N3CCN(C(=O)c4ccn[nH]4)CC3(C)C)nc12 , reported IC50: 1.3 nM

Memo: Cc1ccc(-c2cc(C(C)C)c3nc(C(=O)N4CCN(C(=O)c5nc[nH]n5)CC4(C)C)cn3n2)cc1 , reported IC50: 6.9 nM

Item: CC(C)(C)c1cc(-c2ccc(F)cc2)nn2cc(C(=O)N3CCN(C(=O)c4ccncn4)CC3(C)C)nc12 | IC50: 1.6 nM

For reference, reported IC50 for CC(C)(C)c1cc(-c2ccc(Cl)c(F)c2)nn2cc(C(=O)N3CCNC(=O)C3(C)C)nc12 stands at 0.9 nM

CC(=O)N1CCN(C(=O)c2cn3nc(-c4ccc(F)cc4)cc(C(C)(C)C)c3n2)C(C)(C)C1 yielded IC50 of 3 nM

Value of measured IC50 for the entry CC(C)c1cc(-c2cccc(F)c2)nn2cc(C(=O)N3CCN(C(=O)C(C)(C)O)CC3(C)C)nc12 : 128 nM

IC50 in this record for Cc1nnc(C(=O)N2CCN(C(=O)c3cn4nc(-c5ccc(C(F)(F)F)cc5)cc(C(C)C)c4n3)C(C)(C)C2)o1 : 6 nM

For this molecule ( CC(C)c1cc(-c2ccc(F)cc2F)nn2cc(C(=O)N3CCNC(=O)C3(C)C)nc12 ), measured IC50 is 93 nM

// recorded IC50 for CC(C)c1cc(-c2ccc(F)cc2)nn2cc(C(=O)N3CCN(C(=O)c4cncnc4)CC3(C)C)nc12 : 69 nM

Lab book: IC50 of Cn1nnnc1N1CCN(C(=O)c2cn3nc(-c4ccc(F)cc4)cc(C(C)(C)C)c3n2)C(C)(C)C1=O noted as 58.5 nM

IC50 reading for CC(C)c1cc(-c2ccc(F)c(F)c2)nn2cc(C(=O)N3CCN(C(=O)c4ccn[nH]4)CC3(C)C)nc12 : 1.9 nM

The recorded IC50 for CC(C)c1cc(-c2ccc(F)c(C(F)(F)F)c2)nn2cc(C(=O)N3CCN(C(=O)C(C)(C)O)CC3(C)C)nc12 is 205 nM

# IC50 (molecule: CC(C)c1cc(C(C)C)c2nc(C(=O)N3CCN(C(=O)C4CCC(C(=O)O)CC4)CC3(C)C)cn2n1 (stereo not drawn) ) is 1500 nM

The reported value for COC(=O)C(C)(C)CC(=O)N1CCN(C(=O)c2cn3nc(-c4ccc(F)cc4)cc(C(C)(C)C)c3n2)C(C)(C)C1 in terms of IC50 is 4.2 nM

Reported IC50 ( CC1(C)CN(C(=O)c2ccn[nH]2)CCN1C(=O)c1cn2nc(-c3ccc(F)cc3)cc(C(F)(F)F)c2n1 ) = 30.3 nM

Kindly note the recorded IC50 for Cc1nnc(C(=O)N2CCN(C(=O)c3cn4nc(C5CCC(F)(F)CC5)cc(C(C)(C)C)c4n3)C(C)(C)C2)o1 , which is 39.8 nM

The molecule listed as CC(C)c1cc(-c2ccc(F)cc2)nn2cc(C(=O)N3CCN(C#N)C(=O)C3(C)C)nc12 shows IC50 equal to 4.6 nM

So for CC(C)(C)c1cc(-c2ccc(C(F)(F)F)cc2)nn2cc(C(=O)N3CCN(c4c[nH]cn4)C(=O)C3(C)C)nc12 , the logged IC50 turned out to be 4.4 nM

Note to self: IC50 recorded for CC(C)(C)c1cc(-c2ccc(C(F)(F)F)cc2)nn2cc(C(=O)N3CCN(C(=O)c4ccccn4)CC3(C)C)nc12 was 2.6 nM
